So basically: is MDR1-MDCK efflux ratio under 2? Then met. Not under? Then not met.

molecular_string=O=C(O)c1ccccc1-c1ccc(CN2CCCCC2)cc1 label_class="not met"
molecular_string=O=C(CSc1nccn1C1CC1)Nc1c(Cl)cc(Cl)cc1C(=O)O label_class="not met"
molecular_string=Fc1cccc(OC2CCN(Cc3nc4ccccc4[nH]3)CC2)c1 label_class=met
molecular_string=Cc1cc(-c2nc(N(C)C)no2)cc(O)n1 label_class=met
molecular_string=CN(C)c1cc(CNC(=O)C2CCOCC2)ccn1 label_class="not met"
molecular_string=CCOc1cc2nn(CCC(C)(C)O)cc2cc1NC(=O)c1cccc(C(F)F)n1 label_class="not met"
molecular_string=Cc1cccn(Cc2cccnc2)c1=O label_class=met
molecular_string=Cc1ccc(-c2cnn3c(O)cc(Cn4cccn4)nc23)cc1 label_class="not met"
molecular_string=N#Cc1cc(Oc2ccc3c(c2)CCC3)ncn1 label_class=met
molecular_string=CC(C)N(C(=O)Cn1cccc2cc(C(F)F)nc1-2)C(C)C label_class="not met"
molecular_string=Cc1ccc(C#N)c(NCc2ccccc2-n2ccnc2)n1 label_class=met
molecular_string=COCC(=O)N1CC[C@H](c2nnc(-c3ccc(C)cc3)o2)C1 label_class=met
